- tested_on: T1, human MSLN-R3-his protein (human, UniProt Q13421 487-598)
- T1 construct: also called human MSLN-R3 protein; hMSLN-R3-his; not shown: His tag
- assay_info: ELISA, coated antigen; antibody 10 nM
endpoint_label: OD450 (OD450)
Number in OD450, nothing else.

binder | unit_abbrev | OD450
S009-F3.38.10 (antibody, human IgG1, kappa, V domains shown, Human-murine chimeric antibody, human IgG1/kappa constant regions) VH: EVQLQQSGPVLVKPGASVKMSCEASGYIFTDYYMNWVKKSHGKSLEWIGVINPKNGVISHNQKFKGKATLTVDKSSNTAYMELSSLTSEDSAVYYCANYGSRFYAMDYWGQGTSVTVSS VL: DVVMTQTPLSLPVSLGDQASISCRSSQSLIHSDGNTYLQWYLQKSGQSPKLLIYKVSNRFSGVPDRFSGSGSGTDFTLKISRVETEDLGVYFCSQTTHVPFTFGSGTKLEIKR | OD450 | 1.85
S009-F3.16.1 (antibody, human IgG1, kappa, V domains shown, Human-murine chimeric antibody, human IgG1/kappa constant regions) VH: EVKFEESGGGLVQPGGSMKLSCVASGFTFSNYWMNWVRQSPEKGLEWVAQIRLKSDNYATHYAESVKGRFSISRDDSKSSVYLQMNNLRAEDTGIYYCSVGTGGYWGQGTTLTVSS VL: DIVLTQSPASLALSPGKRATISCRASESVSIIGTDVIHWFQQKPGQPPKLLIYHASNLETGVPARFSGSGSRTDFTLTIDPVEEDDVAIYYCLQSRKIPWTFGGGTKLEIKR | OD450 | 1.91

From here, focus on the item given below.
Fill in: OD450 of S009-F3.45.21 (antibody, human IgG1, kappa, V domains shown, Human-murine chimeric antibody, human IgG1/kappa constant regions) VH: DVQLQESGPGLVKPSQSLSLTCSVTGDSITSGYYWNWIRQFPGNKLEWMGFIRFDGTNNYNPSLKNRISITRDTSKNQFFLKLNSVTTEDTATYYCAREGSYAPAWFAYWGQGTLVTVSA VL: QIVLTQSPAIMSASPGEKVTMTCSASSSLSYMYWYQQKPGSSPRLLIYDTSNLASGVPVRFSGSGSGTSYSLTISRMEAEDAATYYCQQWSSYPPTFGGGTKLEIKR is ___
0.07
